Test: label from the status in PepcDB records
observation type: protein production

Memo: "MYLTCRFEESKSAEKAVVALEESTSGEPKTPTESHEKLRKVRSDQGSSTTSSNQENIGSSSVSFRNQVLQSTVTNQKQDSPIPVESNREKAASKEVEAGSQSTNEGIAGQSSSTEKPKEEESAKQRWSRSQREAALMKFRLKRKDRCFDKKHLKQIQDQTDSMEMYKNGLQVRYQSRKKLAEQRPRVKGQFVRTVNSDASTKS" , reported protein production: failed

Memo: "MCGDCVEKEYPNRGNTCLENGSFLLNFTGCAVCSKRDFMLITNKSLKEEDGEEIVTYDHLCKNCHHVIARHEYTFSIMDEFQEYTMLCLLCGKAEDTISILPDDPRQMTLLF" , reported protein production: failed

Memo: "RTSYLEFNQRDKNSPYNNVNLRKAISAAIDRNALVDKILGDGSVVATGLIPEGMSYSPTDDTDFADENKKIVEYSPEKAKEYWAKAKKELGITTLKMDIVADDVDSTKKLAEYIQGTLKDTLEGIDVTVSPVPFSVRIDRGSRGDFETILGGWAADYADPSSFLDLFVTGNNYNRGRFSSKAYDELIEASATRDASDPEKRWEDMVKAEKLLIGEETALAPLYQKA" , reported protein production: failed

----------
Experiment: label from the status in PepcDB records
observation type: protein production

Use these answered entries as a reference point.
Memo: "MEDIIVVENLVKKFGDFEAVKGVSFSVKKGEIFAFLGPNGAGKTTTIHMLTTLLKPTSGKAWVAGHDVLKEPREVRRKIGIVFQDQSLDRELTAYENMYIHGKIYGYGGEKLKKRILELLEFVELLEFKDKPVKTFSGGMARRLEIARSLIHEPEVLFLDEPTIGLDPHTRAHMWEYISKMKKEHNMTIFLTTHYMDEAEQLADRVAIIDHGKIIALGTPTELKRMVGKEIIYVRFSEAVECLEGDFIESCRKLPDGRLELNVEDSGRAIPKIFELAQQKGLKIEEITYHKPTLNDVFLHLTGRELREEGPENSFKTMARMRMRMRR" , reported protein production: not failed

Memo: "MAKKRSKLEIIQAILEACKSGSPKTRIMYGANLSYALTGRYIKMLMDLEIIRQEGKQYMLTKKGEELLEDIRKFNEMRKNMDQLKEKINSVLSIRQ" , reported protein production: not failed

Memo: "MSEGMMLTTLDRLTIYAVLCFISLCALGLGETTQAQLMPVLGTAASIFGIWLEMRSEQDTTQQPHR" , reported protein production: failed

Memo: "QDISQRKKEQEALAESESRFQELADLLPQPVFELDMKGNIIYTNSLGFQAFGYTKDDLEKGVSSLALFVPEDRETVLQNIENRLKNIPFENHEYTALRKDGTTFPILIYTARINRGGVPVGIRGIVLDITDRKQAEENLVQLNQNLELRVEERTRELEVTHQQMILQEKLASIGQLAAGIAHELNNPINFVRINFATLQEDVSDLHTLLKEYRLVTEKLEDR" , reported protein production: failed

New cases:
Memo: "TSTFYELFPKTFPKKLPIWTIDQSRLRKEYRQLQAQHHPDMAQQGSEQSSTLNQAYHTLKDPLRRSQYMLKLLRNIDLTQEQTSNEVTTSDPQLLLKVLDIHDELSQMDDEAGVKLLEKQNKERIQDIEAQLGQCYNDKDYAAAVKLTVELKYWYNLAKAFKDWAPGKQLEMNH" , reported protein production: not failed

Memo: "MSLETVRLQRELIEAQRQTYNEMRTYFTVNGVEGVIGAVFDEGVITLRVPSEVLFAPGAVELAPGADRVLATLKDLFIRRREQNINIKGFTDDVQPSANARFKDNWEVSALRSVNVLRYFLGAGIEPARLTATGLGELDPLFPNTSDENRARNRRVEFVLERRVVREGHHHHHH" , reported protein production: not failed

Memo: "MIPFTIEYIFVLIGAFLLSIILTPIIRVISLKVGAVDKPNARRINKVPMPSSGGLAIFLSFVVTTLFFMPMAASRHFIEVSYFHYILPVIIGGLVVTTTGFIDDIFELRPRYKMLGIIIAAIIIWKFTHFRFDSFKIPIGGPLLEFGPILTFFLTVLWIISITNAINLIDGLDGLVSGVSIISLATMAVVSYFFLPKIDFFLTLTIVILIASIVGFFPYNYHPAIIYLGDAGALFIGFMIGVLSLQGLKNSTAVAVITPVIILGVPILDTAVAIVRRKLSGKKISEADKMHLHHRLLSMGFTHRGAVLVVYGIAIIFSLIALLLNVSSRIGGIFLLLALLLAMEIFIEGLNIWGENRTPLFNLLKFIGNSDYRQSVIAKYSDKHQK" , reported protein production: failed

Memo: "MDEYEDSQSPAPSYQYPKETLRKRQNSVQNSGGSVSSRFSRKSFKLDYRLEEDVTKSKKGKDGRFVNPWPTWKNISIPNVLRWLIMEKNHSGVPGSKEELDKELPVLKPYFVSDPEDAGVREAGLRVTWLGHATLMVEMDELIFLTDPMFSSRASPSQYMGPKRFRRPPCTISELPTIDAVLISHNHYDHLDYGSVLALNERFGSELRWFVPLGLLDWMQKCGCENVIELDWWEENCVPGHDKVTFVFTPSQHWCKRTLLDDNKVLWGSWSVLGPWSRFFFAGDTGYCPAFEEIGKRFGPFDLAAIPIGAYEPRWFMKYQHADPEDAVRIHIDLQTKRSVAIHWGTFALANEHYLEPPVKLNEALERYGLSCEDFFILKHGESRYLNTDDRAFEET" , reported protein production: failed

Memo: "MPSLCKLNPCIQTHKEVIMDNLITQLLFSASITGPICVMLLLGVLLKRIHLINDNFIEVASKLVFQVTLPAMLFLSIVNAKHDFSSSSHLIIYGLIANFVFFLFTIYSTRFAFKNKQNHGVIIQGGFRANTAIIALAYVANAYGNTGVALAAIYVASTTILYNIQAVIALTPKNENNKKQAVGIIIKTLTKNPLIISIVLGIICSLLSIPVPGMLSQAGQYFANMTLPLALLCAGGSLNLHSMKEESAATWFATSYKLILSPLFITSGGILVGFRGLELGLIFFMSAAPTAAASYVMARAMGGNAILAANIIAQTTVASLFTCTLGIFVLSSFNLI" , reported protein production: failed

Memo: "MSSERQLAGRIVVPGEPLPEEVEASPPYVIDYKGVKRATVVGLLREKGDGGGRAFVKLKEIYVPQAGDVVIGLIQSVGIMNWFVDINSPYVAVLSVQDFLGRPFNPAVDDMQSLLKVGDYIKAKVVAFDKTRSPLLTVQGEGLGRIVRGKIVEISPAKVPRVIGRKMSMLKTLEEKTECKIFVARNGRIHLECPNEDLEAIAVMAIKIIDEEAYTSGLTKRIIKFIEEERRIREV" , reported protein production: not failed

----------
Experiment: label from the status in PepcDB records
observation type: protein production

Memo: "MVKTKKEDLNQFLIPRLNTIYETLQLFDGTASPTVERVNWNDVLQMSDHLSKQATIVGMLWTGESPKADSLKETMESYFNALQGFLLCCHGSTLGAGPTLSSIIHVSVKQIVDSSFRLLQGSVSLYEGSYEKDKKPSIPQLSGVVWEACSSFKKVPATNITAIGRAITQVAVSMKDVLREMKEVKPACPLSECEASGDNMSSDDDDDDDLGDDLSPEEMEVATMVTEIVSETIMVIKELIRVITGMIKMENPKDNSGFVESLEKLLKLCQGTGVQIDELGACVYPPQEMNKMKQTVKVIQGNLDEFETEVERLKSSSDGFSGACGKLRNSLKHMETELDKRCEAELVVEMQNVTLDS" , reported protein production: failed

Memo: "KVILYARVSSSTQKDELVNQVKYLEEQVKEYDLVITDIGSGLNMKRKGFLKLLRMILNNEVSRVVVAYPDRLVRVGFEILEEVCKAHNCEIVVLNQEDKEEELVEDLMSALVSFSGKLYGMRSHEYEKVKKCAEELKNWKI" , reported protein production: not failed

Memo: "MWDVIVVGGGPSGLSAALFLARAGLKVLVLDGGRSKVKGVSRVPNYPGLLDEPSGEELLRRLEAHARRYGAEVRPGVVKGVRDMGGVFEVETEEGVEKAERLLLCTHKDPTLPSLLGLTRRGAYIDTDEGGRTSYPRVYAAGVARGKVPGHAIISAGDGAYVAVHLVSDLRGEPYKDHAL" , reported protein production: not failed

Memo: "MYKNILILGRGIGQVMFQNNALSGGLMLLGIAFNSWQLAVLSVLGTVVSTLTASLSGYDKEDIRNGLYGFNGTLVGIAIGVFMEINVTSILLLISGSAFSTWVARCFRYQNRVSGLTAPFIFVVWLLLVGCHYLYPSLLLSSSLEKPELTMDIFRSFCLNIGQVMFQGNILSGLFFLLGILINSRMNALYTLTGAILPLFMILYPHTDLAAWNLGLLGYNGVLCAIALGDKTGIGVVKAIFSIILSIVLQLTGMHMGIVTLTAPFVFSVWITGGLFSVFRSKS" , reported protein production: failed

Memo: "MTLTMGFIGFGKSANRYHLPYLKTRNNIKVKTIFVRQINEELAAPYEERGVYFTTDLDELLNDKEIQVVTICTPAHTHYELAKKVILAGKSVIVEKPFCDTVEHAKELLALGREKGVVVMPYQNRRFDGDFLAVKQVVEQGFLGDIIEIESHIDYFRPGSITHEAPKEEGSFYSLGIHTMDRMISLFGRPNTVTYDIRNNEVEGAVDNYFDVGLHYGNQLKIKLKTNHIVAKDYPRFIVHGTNGSFIKYGEDQQENDLKAGIMPESAGFGEDSPMYYGIAKYRNANGDWIEKQIKTPLGDYGRFYDAAYDTIVNGAPKLVKDEEAVTNIEILENGFAAPSPSVYKLEALHLNELEHHHHHH" , reported protein production: not failed

Memo: "MSLQLINLNSDLKRLRDEGYFIQVKNGFLIMRDVPYVNSNRHVCRGTIISSLSLAGDRTRIPDTHVVHFDGDMPCNAEGEALNAVVLQSSIFDLGRGITAKHMFSSKPKSGYTDYYHKMTTYASILSGHAEVLNSGISPKVFSTPEDEEDSVFNYTETASGRVGIGALSDLLTEE" , reported protein production: failed

Memo: "MMIMNNFDEKKLIQEFSKIQSELSPRIKLENNFQIEEIQFIAGVDLAYWNVNKTKYGTCCIVIIDYGTKEVVEKVYSYGEIPIPYIPGFLAFRELPLIIEAVKKLTKQPDIYFFDGNGYLHYRHMGIATHASFLLNKPTIGVAKSYLKIRDVDFIMPENLKGSYTDIVINNEVYGRTLRTTKNVKPIFVSCGNWIDLDTSTEIVMNCINNESRLPIPVRLADLETHKMRKKLMEGLEHHHHHH" , reported protein production: failed

Memo: "MLTAQSEYVKKLRPLLPPEAFQADPKKLVILGLNLGIYVAGLTIARHLHQWPGQWLWLFLPMALLMGNSVTVFLFGSHDLMHGSVLKKRSKISYLISLLGLSLWWMPPSQWRSLHNQVHHNNTNSLRDPDRNYLHEQPKTWGKWIHHLFAPSGEVNTLWLIFGMGTAWGVHNFRNLISVLFFTGGNADFVPAAFTVKAQDRQRIWLELAAIGAVHLSILFYLQFQLIPIILGYFLPIFLGHAMGMFYIYTNHLACPMTDINDPLVNSVSLRMPKLFDCLHFNFSYHTEHHLFPDVNSDYYPLVQDLLQTHYPGQMNLLTAKEAWKMLLETPRHYQGETTLVGYNGGETIACPLPKNVPDLTETKVTASV" , reported protein production: failed

Memo: "MVGLADVAVLYSGGKDSNYALYWALKSGLRVRYLVSMVSENEESYMYHTPNVELTSLQARALGIPIIKGFTKGEKEKEVEDLKNVLEGLKVDGIVAGALASRYQKERIENVARELGLKVYTPAWEKDPYQYMLEIIKLGFKVVFVAVSAYGLNESWLGRELNYKNLEELKKLSEKYGIHIAGEGGEFETFVLDMPFFKAKIVIDDAEKFWDGLSGKFIIKRAHLEWK" , reported protein production: not failed

Memo: "MTIGYRDAAGDPLFPWLMEIKNSMEDLYAGKNSGYDLDKLLFDCISTYKKDSRYRNDLRFLKIWEDFERVYREIEETEICKGHSLLYEWYAIFLEVKGLWRRANSVYQTGLSRKAEPFDRLKEAHSLFLQRISKRTKASSLEKVGDDAQATDLETGFVNPWETSTVNGLIHKIKPQLVKYDGYHVSNKVFPGKANLSSLQNYSRNKIIEIGILFSYQSSLSPLQDKESFFLL" , reported protein production: failed

New cases:
Memo: "MKREIQVSVFLTFITLAYYLLNSLALEFLGLGFISIPLTILLPASILFERERPNPISRVTYIFSMLWLVFLIYLLTGWALVQFIWFFLDLPCLKILAVSLAALSVSYGVFRARKIEVKRVEIPFPVEESLRFVQLSDIHLGTVRSAGFLKEVSEAVRRVEAAAVLITGDLLDGSRPVDSSIISSLETGAPIFFVSGNHDTYSGDFRSTVSDAGIMCIDQSVIEFEGIQIIGVGYSMERHSLPAILDLLEFDEDRPVLLLHHLPVDWEDARERGVDLQLSGHTHGGQFYPFNIIVGLMFPFLRGLYSDSGGFLYVSEGTGTWGPPVRLGSSCEITVIDLVPFKEI" , reported protein production: failed

Every entry's value here was drawn from a protein production outcome set (Wang et al. 2014).
